Data provenance: PubChem BioAssay (NCATS)

- Tested on: HaCat
- assay_method_text: Cytotoxic Profiling of Annotated Libraries Using Quantitative High-Throughput Screening (AID 1296008); also: nearly all actives have a fitted effect of over 60% in size; also: potency is read from the fitted curve at half-maximal effect
- settings: Five cell lines viability, CellTiter-Glo ATP luminescence, 48-72 h
- Method: Cell-based phenotypic screening is a commonly used approach to discover biological pathways, novel drug targets, chemical probes and high-quality hit-to-lead molecules. […] A pintool (Kalypsys) was used to transfer 23 nL of compound solution to the 1536-well assay plates. […] Plates were left at room temperature for 10 min before imaging the ATP-coupled luminescence using a ViewLux microplate imager (PerkinElmer, Waltham, MA).
Records with an inconclusive call do not appear. Active and inactive are the calls of the source. Calls follow the shape of the dose curve; as a rule, active = well fitted inhibition curve with a large enough effect; inconclusive = small, poorly fitted or top-dose-only effect; inactive = flat fitted curve, though single readings scatter.
measure: Potency

>>> print(df.to_string())
                                 cpd_smiles    value_measured
0  O=C(c1ccc(F)c(F)c1Nc1ccc(I)cc1F)N1CC(O)([C@H]2CCCCN2)C1  7.43 µM (active)
1  COc1cc2nc(-c3cc(F)ccc3O)nc(N[C@@H]3CNC[C@@H]3C(C)(C)O)c2cc1OC  26.4 µM (active)
2  O=[N+]([O-])c1ccc(Nc2ccccc2-c2ccccc2)c2nonc12          inactive
3  CCCCCCOC(=O)N=C(N)c1ccc(NCc2nc3cc(C(=O)N(CCC(=O)OCC)c4ccccn4)ccc3n2C)cc1          inactive

----------
- assay_method_text: qHTS profiling of the MIPE4 collection as inhibitors of Plasmodium falciparum (DD2) proliferation (AID 743345)
- settings: P. falciparum Dd2 in erythrocytes, SYBR Green DNA, 72 h; at 28.5 µM (top of the series) unless noted
measure: parasite growth remaining, % of DMSO control (lower = more inhibition)

compound	value_measured
C[C@@H]1CC=CC=CC=CC=C[C@@H](O[C@@H]2O[C@H](C)[C@@H](O)[C@H](N)[C@H]2O)C[C@@H]2O[C@](O)(C[C@@H](O)C[C@@H]3O[C@@H]3C=CC(=O)O1)C[C@H](O)[C@@H]2C(=O)O	67%
NC(=O)c1ccc(N(C(N)=O)c2c(F)cccc2F)nc1-c1ccc(F)cc1F	104%
NS(=O)(=O)c1ccc(Nc2nc(OCC3CCCCC3)c3[nH]cnc3n2)cc1	13.9%
O=C(O)C1=CC(O)C(O)[C@H](O)C1 (some centres not stated)	55.1%
C[C@@H](N)c1ccc(C(=O)Nc2ccnc3[nH]ccc23)cc1	78.2%
C=CC[N+]1([C@H]2C[C@H]3[C@@H]4CC[C@H]5C[C@H](O)[C@@H](N6CCOCC6)C[C@]5(C)[C@@H]4CC[C@]3(C)[C@H]2OC(C)=O)CCCC1	41%
C[C@@]1(C(=O)Nc2ccc(F)nc2)CCCN1c1nc(Nc2cc(C3CC3)[nH]n2)c2cccn2n1	14.6%
Fc1ccc(C(c2ccc(F)cc2)N2CCN(CC=Cc3ccccc3)CC2)cc1	14.4%
CCCCN(CCCC)CC(O)c1cc(Cl)cc2c1-c1ccc(Cl)cc1C2=Cc1ccc(Cl)cc1 (configuration not stated)	7.19%
CNC(=O)c1cc(Oc2ccc(NC(=O)Nc3ccc(Cl)c(C(F)(F)F)c3)c(F)c2)ccn1	33.1%
CCC[C@@H](NC(=O)[C@@H]1[C@H]2CCC[C@@H]2CN1C(=O)[C@@H](NC(=O)[C@@H](NC(=O)c1cnccn1)C1CCCCC1)C(C)(C)C)C(=O)C(=O)NC1CC1	61.2%
CCCCCCCCCCCCCC(=O)N[C@H](CO)[C@H](O)c1ccc([N+](=O)[O-])cc1	85.8%
C[C@@H]1C[C@H]2[C@@H]3CCC4=CC(=O)C=C[C@]4(C)[C@@]3(F)[C@@H](O)C[C@]2(C)[C@@]1(O)C(=O)CO	90.6%
O=S(=O)(NCCNCC=Cc1ccc(Br)cc1)c1cccc2cnccc12	19.2%
CC[C@]1(O)C[C@H]2CN(CCC3=c4ccccc4=N[C]3[C@@](C(=O)OC)(c3cc4c(cc3OC)N(C)[C@H]3[C@@](O)(C(N)=O)[C@H](O)[C@]5(CC)C=CCN6CC[C@]43[C@@H]65)C2)C1	14.1%
CC(C)(F)C[C@H](N[C@@H](c1ccc(-c2ccc(S(C)(=O)=O)cc2)cc1)C(F)(F)F)C(=O)NC1(C#N)CC1	64.3%
CN[C@@H](C)[C@H]1[C@H](O)C[C@@]2(C)[C@@H]3CC[C@H]4C(C)(C)[C@@H](NC)CC[C@@]45C[C@@]35CC[C@]12C	50.3%
COc1cc2c(cc1Cc1cccc(Cl)c1F)c(=O)c(C(=O)O)cn2[C@H](CO)C(C)C	19%
CN1CCN(c2cccc(Nc3nc4c(-c5ccc(S(C)(=O)=O)cc5)cccn4n3)c2)CC1	11.3%
CC[C@@H]([C@H](C)O)n1ncn(-c2ccc(N3CCN(c4ccc(OCC5CO[C@@](Cn6cncn6)(c6ccc(F)cc6F)C5)cc4)CC3)cc2)c1=O (some centres not stated)	9.01%
C#C[C@]1(O)CC[C@H]2[C@H]3CCc4cc(OC)ccc4[C@H]3CC[C@@]21C	98.2%
COc1cc2c(cc1OC)CC(=O)N(CCCN(C)C[C@H]1Cc3cc(OC)c(OC)cc31)CC2	98.4%
CC(C)(CO)[C@@H](O)C(=O)NCCC(=O)O	101%
Cc1ccc(C(=O)N(CCCN)[C@@H](c2oc3cc(Cl)ccc3c(=O)c2Cc2ccccc2)C(C)C)cc1	8.7%
COc1ccc(-c2cc(=O)c3c(O)cc(O[C@@H]4O[C@H](CO[C@@H]5O[C@@H](C)[C@H](O)[C@@H](O)[C@@H]5O)[C@@H](O)[C@H](O)[C@@H]4O)cc3o2)cc1O	28.6%
CC1(C)CC(=O)c2c(C(F)(F)F)nn(-c3ccc(C(N)=O)c(NC4CCC(O)CC4)c3)c2C1 (configuration not stated)	8.63%
COc1cc2c(cc1OC)[C@@H]1Cc3ccc(OC)c(OC)c3CN1CC2	36.6%
CN1N=C(N)c2cn([C@@H]3O[C@H](COP(=O)(O)O)[C@@H](O)[C@@H]3O)c3ncnc1c23	100%
FC(F)(F)c1ccc(C=Cc2nc(COc3ccc(CCCCn4ccnn4)cc3)co2)cc1	85.5%
O=C1C(c2c(O)[nH]c3ccccc23)=Nc2ccccc21	86.5%
C=CCc1cccc(C=NNC(=O)CN2CCN(Cc3ccccc3)CC2)c1O	23.3%
COc1ccc2ccc(=O)oc2c1CC=C(C)C	15.6%

----------
- assay_method_text: Quantitative High-Throughput drug screen in 47 multiple myeloma cell lines against the NCATS MIPE library collection: H1112_PLB cell viability assay (AID 1918967; also: nearly all actives have a fitted effect of over 30% in size; also: potency is read from the fitted curve at half-maximal effect)
- settings: H1112 myeloma cells viability, ATP luminescence, 48 h; series mostly up to 45.8 µM
Results filed as inconclusive are left out. Activity calls are given as the source filed them. Calls follow the shape of the dose curve; as a rule, active = well fitted cell-killing curve with a large enough effect; inconclusive = small, poorly fitted or top-dose-only effect, or effect the other way; inactive = no such curve, though single readings can be large or run the other way.
measure: Potency

>>> print(df.to_string())
                                   compound  measure    value_measured
0  CCNC(=O)CCCC=CC[C@@H]1[C@H](C=CC(O)CCc2ccccc2)[C@@H](O)C[C@@H]1O (stereo not given in full)  Potency          inactive
1  N=C1SC(=Cc2ccc(-c3ccc4c(c3)C(=O)NC4=O)o2)C(=O)N1c1ccc(Br)cc1  Potency          inactive
2  CN(C)c1nc(Cc2ccc(NC(=O)c3ccc(C(F)(F)F)cc3)cc2)nc(N(C)C)c1CC(=O)O  Potency          inactive
3     CC(C)CNc1ccnc(NCc2csc(-c3ccccc3)n2)n1  Potency  6.62 µM (active)
4  O=[N+]([O-])c1ccc(Nc2ccccc2-c2ccccc2)c2nonc12  Potency  18.7 µM (active)
5  CCCCN(CCCC)CC(O)c1cc(Cl)cc2c1-c1ccc(Cl)cc1C2=Cc1ccc(Cl)cc1 (stereo not given)  Potency  26.4 µM (active)
6  CCOC(=O)N1c2ccc(C(F)(F)F)cc2[C@@H](N(Cc2cc(C(F)(F)F)cc(C(F)(F)F)c2)C(=O)OC)C[C@H]1CC  Potency          inactive
7     COc1ccc(C=CC(=O)Nc2ccccc2C(=O)O)cc1OC  Potency          inactive
8  CC(C)(C)c1nc(-c2cccc(NS(=O)(=O)c3c(F)cccc3F)c2F)c(-c2ccnc(N)n2)s1  Potency  8.33 µM (active)
9  C[C@H]1[C@H](O)O[C@@H]2O[C@@]3(C)CC[C@@H]4[C@H](C)CC[C@@H]1[C@@]24OO3  Potency  16.6 µM (active)

----------
- assay_method_text: qHTS of pediatric cancer cell lines to identify multiple opportunities for drug repurposing: Primary screen for LAN-5 cells (AID 1347100)
- settings: LAN-5 neuroblastoma viability, CellTiter-Glo luminescence, 48 h; series mostly up to 46 µM
Inconclusive results are not listed. Activity calls are given as the source filed them. Calls come from the whole dose curve; as a rule, active = well fitted cell-killing curve with a large enough effect; inconclusive = small, poorly fitted or top-dose-only effect; inactive = no such curve, though single readings can be large or run the other way.
Classes used: active, inactive

                                   molecule     group
0  CC(C)[C@H](O)C(=O)N[C@@H](C)C(=O)N[C@@H]1C(=O)N(C)CCc2ccccc21  inactive
1  O=C1NC(=O)C(c2cnc3ccccn23)=C1c1cn2c3c(cccc13)CN(C(=O)N1CCOCC1)CC2    active
2  CC(C)(F)C[C@H](N[C@@H](c1ccc(-c2ccc(S(C)(=O)=O)cc2)cc1)C(F)(F)F)C(=O)NC1(C#N)CC1  inactive
3  CC(=O)Nc1cccc(-n2c(=O)n(C3CC3)c(=O)c3c(Nc4ccc(I)cc4F)n(C)c(=O)c(C)c32)c1    active
4              O=C(O)c1nc(=O)[nH]c(=O)[nH]1  inactive
5  C=C[C@@H]1CN2CCC1C[C@@H]2C(O)c1ccnc2ccc(OC)cc12 (some centres not stated)  inactive
6  NC(=O)c1ccc(N(C(N)=O)c2c(F)cccc2F)nc1-c1ccc(F)cc1F  inactive
